- Tested on: SN12C renal
- PROTOCOL_DESCRIPTION: NCI tumour cell line growth inhibition, 48 h
VALUE_KIND: TGI

> print(dat)
                                    compound  assay.system   reported
 1       O=c1/c(=C/c2ccccc2F)sc2nc3ccccc3n12   SN12C renal   > 100 µM
 2  CC(C)[C@H]1CO[C@]2(C)[C@@H]3CN(Cc4ccccc4)C[C@@H]3C(=O)N12   SN12C renal   > 100 µM
 3  O=C(COc1ccc2c(=O)cc(-c3ccccc3)oc2c1)N1CCN(c2ccccc2)CC1   SN12C renal   > 100 µM
 4          O=c1cc(NNc2ccccc2)[nH]c(=S)[nH]1   SN12C renal   > 100 µM
 5  CCc1ccccc1NC(=O)C(=O)CC(=O)c1sc(Nc2ccccc2)nc1C   SN12C renal   > 100 µM
 6  C[n+]1c2ccccc2c(C(=O)Nc2ccc(S(=O)(=O)Nc3ccnn3-c3ccccc3)cc2)c2ccccc21   SN12C renal   > 100 µM
 7               Nc1ccccc1C#C/C=C\C#Cc1cccs1   SN12C renal    16.7 µM
 8     O=C(N/N=C(/c1ccccc1)C(F)(F)F)c1ccncc1   SN12C renal   > 100 µM
 9  COC12OC3(C4OC41)C(C(=O)O[C@H]3CO[Si](C)(C)C(C)(C)C)C2C(=O)Oc1ccccc1 (stereo partly specified)   SN12C renal   > 100 µM
10  COc1ccc(-c2nc3sc4c(c3c(=O)[nH]2)CCCCCC4)cc1   SN12C renal  > 33.2 µM
11  CCC1C(C#N)=C(N)OC2=C1C(=O)CC(C)(C)C2 (stereo unspecified)   SN12C renal   > 100 µM
12  CN1CCC(n2cnc(-c3ccc(F)cc3)c2-c2ccnc(NCCO)n2)CC1   SN12C renal    > 25 µM
13  Cn1cc(-c2ccc3occ(-c4cccc(-c5ccncc5)c4)c3n2)cn1   SN12C renal   > 100 µM
14      CC1=Nc2ccccc2S/C1=C(/C)NNC(=O)C(N)=O   SN12C renal   > 100 µM
15  CC(C)(Br)C(Br)CCC(C)(Br)C(Br)CO (stereo unspecified)   SN12C renal    > 10 µM
16  N#Cc1c(N2CCCC2)[nH]c(=O)c(C(c2c(Cl)cccc2Cl)c2c(O)c(C#N)c(N3CCCC3)[nH]c2=O)c1O   SN12C renal    33.9 µM
17  CCCc1[nH]c(SCCCCCCCCSc2nc(-c3ccc(F)cc3)c(CCC)[nH]2)nc1-c1ccc(F)cc1   SN12C renal   > 100 µM
18  CC1=C(Oc2ccccc2)C(CCC(=O)O)c2c(O)cc(Cl)c(O)c21 (stereo unspecified)   SN12C renal   > 100 µM
19  CC12CCC(CC1=O)C2(C)CCC(N)=O (stereo unspecified)   SN12C renal   > 100 µM
20      CCOC(=O)c1c(N2CCCC2)nsc1Nc1ccc(F)cc1   SN12C renal   > 100 µM
21  CCCCCCCCCCCC(=O)Oc1c(Cl)cc(Cl)c(OC(=O)C(=O)Oc2c(Cl)cc(Cl)c(OC(=O)CCCCCCCCCCC)c2Cl)c1Cl   SN12C renal   > 100 µM

These entries and their values trace back to PubChem BioAssay (NCI).
